- Tested on: NCI-H23 lung
- procedureSummary: NCI tumour cell line growth inhibition, 48 h
Reported TGI values are given for each entry in this list.

| compound | experimentalTarget | observedResult |
| --- | --- | --- |
| COc1ccc(NC(=S)N/N=C/c2c(C)n(C)n(-c3ccccc3)c2=O)cc1 | NCI-H23 lung | > 100 µM |

input: Could you share which TGI value was measured for O=[N+]([O-])c1cccc(-c2ncnc(-c3cccc([N+](=O)[O-])c3)n2)c1 ?
output: > 100 µM

input: Could you share which TGI value was measured for C=C=C(C)C(=O)N(C(C)C)C(C)C ?
output: > 100 µM

input: Could you share which TGI value was measured for CC(C)(C)OC(=O)NCC(c1c[nH]c2ccc(Br)cc12)c1c[nH]c2ccc(Br)cc12 ?
output: 14.5 µM

input: Could you share which TGI value was measured for Nc1c(C(=O)Nc2ccccn2)sc2nc3c(cc12)CCCCC3 ?
output: > 50 µM

input: Could you share which TGI value was measured for CCC[CH2][Sn]([CH2]CCC)([O]C(=O)c1ccc(C)c(N)c1)[O]C(=O)c1ccc(C)c(N)c1 ?
output: 1 µM

input: Could you share which TGI value was measured for O=C1CC2(CCC(O)(c3cccc4ccccc34)C(C(=O)c3cccc4ccccc34)C2)C(=O)c2ccccc2N1 (configuration not stated) ?
output: > 100 µM

---

- Tested on: SK-MEL-28 melanoma
- procedureSummary: NCI tumour cell line growth inhibition, 48 h
Reported GI50 values are given for each entry in this list.

| molecule | observedResult |
| --- | --- |
| [N-]=[N+]=NCCCn1c2c(c3ccccc3c1=O)C(=O)c1cc(Br)ccc1-2 | > 100 µM |
| ClC1=C(Cl)C(Cl)=C(Cl)C1=Cc1ccccc1 | 1.62 µM |
| O=C1Nc2ccccc2C1(c1c[nH]c2ccccc12)c1c[nH]c2ccccc12 | 5.7 µM |

input: Could you share which GI50 value was measured for N.N.NCCCCCCN.O=C([O-])CCl.O=C([O-])CCl.O=C([O-])CCl.O=C([O-])CCl.[Pt+4].[Pt+4] ?
output: > 50 µM

input: Could you share which GI50 value was measured for COc1ccc(-c2c(C#N)c(N)nc3c2COc2ccc(F)cc2-3)cc1OC ?
output: 29.9 µM

input: Could you share which GI50 value was measured for Cc1cc(I)cc(CN(C)CCN2CCOCC2)c1O ?
output: > 78.1 µM

input: Could you share which GI50 value was measured for COc1ccc(C(O)c2cc3c(N)c(C(=O)Nc4cccc(OC)c4)sc3nc2C)cc1 (centres undefined) ?
output: 1.58 µM

input: Could you share which GI50 value was measured for COc1cnc2c(c1)C(=O)c1c-2n(CCCBr)c(=O)c2cc([N+](=O)[O-])ccc12 ?
output: 1.52 µM

input: Could you share which GI50 value was measured for O=C(O)c1sccc1O ?
output: 32.2 µM

input: Could you share which GI50 value was measured for COc1cc(OC)cc(C2C(C#N)=C(N)Oc3c2ccc2ccc(O)cc32)c1 (centres undefined) ?
output: 2.27 µM

input: Could you share which GI50 value was measured for c1ccc(CSc2nnc3c4c5c(sc4nc(-c4cccnc4)n23)CCCCCC5)cc1 ?
output: 3.35 µM

input: Could you share which GI50 value was measured for CCN(CC)c1ccc2c(cc1=O)[C@@H](NC(C)=O)CCc1cc(OC)c(OC)c(OC)c1-2 ?
output: > 100 µM

input: Could you share which GI50 value was measured for CC(C)=NNc1ncnc2c1ncn2C1OC(CO)C(O)C1O (centres undefined) ?
output: 4.5 µM

input: Could you share which GI50 value was measured for O=C(Nc1ccc(Oc2cccc(Cl)c2)c(Cl)c1)c1cnccn1 ?
output: 14.1 µM

Data provenance: PubChem BioAssay (NCI)
